The measurements presented in this section are drawn from PubChem BioAssay.

- Assay text: P. aeruginosa biofilm formation inhibitors, primary screen, strain PAO1, LB-PBS medium, absorbance 600 nm (AID 1176); note: test concentration not given here
- Conditions: P. aeruginosa PAO1 growth/biofilm, A600, 12 h; higher = more signal
z-score for assorted compounds

Compound: O=C/C=C/c1ccc2c(c1)OCO2
z-score: 0.227
--
Compound: CC(=O)Nc1cc(Br)ccc1C(=O)O
z-score: -0.103
--
Compound: COC(=O)c1ccc(C(O)C2C=CC3C(=O)N(c4ccccc4)C(=O)C3N2Nc2ccc(C#N)cc2)o1 (stereo unspecified)
z-score: 1.38
--
Compound: COc1ccc([Si](C)(C)[C@H]2[C@H](CC(=O)N(CCO)Cc3ccccc3)O[C@@]3(C(=O)N(Cc4cccc(N5CCC5=O)c4)c4ccccc43)[C@@H]2C)cc1
z-score: 0.295
--
Compound: C=CC[C@]1(C(=O)N2CCOCC2)N=C(c2ccc(OCCCO)cc2)O[C@H]1c1ccccc1
z-score: 1.17
--
Compound: C=C(COC)C(=O)CC[C@H](OC(C)=O)c1cccc(OCCO)c1
z-score: -0.73
--
Compound: C=C[C@@H](COC(C)=O)N(Cc1ccccc1[N+](=O)[O-])S(=O)(=O)c1ccc(Br)cc1
z-score: -0.0963
--
Compound: COC(=O)c1c(CC[C@@H](CO)NC(=O)N[C@@H](Cc2ccccc2)Cn2cc(C3(O)CCCCC3)nn2)oc(C(C)=O)c1C(=O)OC
z-score: -0.452
--
Compound: COCCOC(=O)N1C(=O)[C@@]2(c3cc(C#CCNC(N)=O)ccc31)[C@H](c1ccccc1OCCO)N1[C@H](c3ccccc3)[C@H](c3ccccc3)OC(=O)[C@H]1[C@@H]2C(N)=O
z-score: 0.971
--
Compound: CCCC[C@@H]1C[C@H]1[C@@H](NC(=O)c1ccc(-c2ccccc2)cc1)c1ccc(-c2ccccc2)cc1
z-score: 0.315
--
Compound: C=CC[C@@]1(C(=O)N2CCOCC2)N=C(c2ccc(OCCCO)cc2)O[C@@H]1c1ccccc1N=[N+]=[N-]
z-score: -0.236
--
Compound: CCOC(=O)C[C@H]1[C@H](OC(=O)c2ccc(C(=O)c3ccccc3)cc2)[C@@H](NC(=O)C2CCCCC2)c2cc(OCCCO)ccc2N1C(=O)c1ccccc1
z-score: 0.0186
--
Compound: O=C1O[C@H](c2ccccc2)[C@H](c2ccccc2)N2[C@H]1[C@@H](C(=O)N1CCN(c3ncccn3)CC1)[C@]1(C(=O)Nc3ccccc31)[C@H]2c1ccc(OCCO)cc1
z-score: 1.55
--
Compound: Cc1ccc(S[C@]2(C(=O)NCC(C)C)CC(=O)N(Cc3ccccc3)[C@@H]2c2ccc(CO)cc2I)cc1
z-score: 0.282
--
Compound: NCCCCCCNC(=O)[C@H]1C[C@H]2C(=O)NCC(=O)N2[C@H]1c1cccc(OCCO)c1
z-score: -0.475
--
Compound: [N-]=[N+]=NCc1ccccc1[C@@H]1OC(c2ccc(OCCCO)cc2)=N[C@]1(Cc1ccccc1)C(=O)N1CCCCC1
z-score: -0.621
